# target_system: HLA-A02.01 (human)
# assay: competition vs radiolabeled reference peptide on purified MHC I, gel filtration
# assay_conditions: remark: other sources report otherwise
pIC50: −log10 of the molar value.
Please note: MET applies when pIC50 is 6 or greater, and NOT MET applies otherwise.

Take a look at these entries with their results.
>>> qualitative_label("SVCFFFFSV")
"MET"
>>> qualitative_label("SLLNYLREM")
"MET"
>>> qualitative_label("LTINKEEAL")
"NOT MET"

IN: Could you verify whether the entry "IMQLMPFGC" shows pIC50 of no less than 6?
OUT: NOT MET

IN: # bool: pIC50 of "LQSLPRFILM" >= 6
OUT: MET

IN: # check: pIC50 of "LIMQLMPFG" is greater than or equal to 6
OUT: NOT MET
